tested on: Mus musculus; assay: Toxicity in ICR mouse xenografted with mouse S180 cells assessed as femur weight at 1 mg/kg, ip administered 24 hrs after tumor implantation daily for 7 consecutive days measured after 24 hrs of last dose (Rvb=0.056 +/- 0.006 g); format: organism-based, CCRF S-180; set-up: dose 1 mg/kg, route intraperitoneal; settings: in vivo
ASSAY_READOUT: Activity

// recorded Activity for `CC1(C)N2Cc3[nH]c4ccccc4c3C[C@H]2C(=O)N1[C@@H](Cc1ccc(O)cc1)C(=O)OCc1ccccc1` : 0.056 g

// recorded Activity for `COc1cccc2c1C(=O)c1c(O)c3c(c(O)c1C2=O)C[C@@](O)(C(=O)CO)C[C@@H]3O[C@H]1C[C@H](N)[C@H](O)[C@H](C)O1` : 0.046 g

// recorded Activity for `CC1(C)N2Cc3[nH]c4ccccc4c3C[C@H]2C(=O)N1[C@@H](CC(=O)OCc1ccccc1)C(=O)OCc1ccccc1` : 0.057 g

// recorded Activity for `CC1(C)N(CC(=O)OCc2ccccc2)C(=O)[C@@H]2Cc3c([nH]c4ccccc34)CN21` : 0.055 g

----------
system: KB; assay: Antiproliferative activity against human KB cells after 3 days by sulforhodamine B assay; format: functional, cell-based; details: 72 h
Hi there, I'd appreciate the recorded pIC50 for every entry that follows.
In textbook form, pIC50 equals minus log to base ten of the concentration in mol/L.

// recorded pIC50 for `CC(C)C[C@@H](C(=O)OCc1ccccc1)N1C(=O)[C@@H]2Cc3c([nH]c4ccccc34)CN2C1(C)C` : 4.39

// recorded pIC50 for `CC1(C)N2Cc3[nH]c4ccccc4c3C[C@H]2C(=O)N1[C@@H](CC(N)=O)C(=O)OCc1ccccc1` : 4.36

// recorded pIC50 for `CC1(C)N2Cc3[nH]c4ccccc4c3C[C@H]2C(=O)N1[C@@H](COCc1ccccc1)C(=O)OCc1ccccc1` : 4.42

// recorded pIC50 for `CC1(C)N(CC(=O)OCc2ccccc2)C(=O)[C@@H]2Cc3c([nH]c4ccccc34)CN21` : 4.65

// recorded pIC50 for `CC1(C)N2Cc3[nH]c4ccccc4c3C[C@H]2C(=O)N1[C@@H](Cc1ccc(O)cc1)C(=O)OCc1ccccc1` : 4.74

// recorded pIC50 for `CC1(C)N2Cc3[nH]c4ccccc4c3C[C@H]2C(=O)N1[C@@H](Cc1ccccc1)C(=O)OCc1ccccc1` : 4.33

// recorded pIC50 for `C[C@@H](C(=O)OCc1ccccc1)N1C(=O)[C@@H]2Cc3c([nH]c4ccccc34)CN2C1(C)C` : 4.22

// recorded pIC50 for `CC(C)[C@@H](C(=O)OCc1ccccc1)N1C(=O)[C@@H]2Cc3c([nH]c4ccccc34)CN2C1(C)C` : 4.28

// recorded pIC50 for CCC(C)[C@@H](C(=O)OCc1ccccc1)N1C(=O)[C@@H]2Cc3c([nH]c4ccccc34)CN2C1(C)C (stereo partly drawn) : 4.30

// recorded pIC50 for `CC1(C)N2Cc3[nH]c4ccccc4c3C[C@H]2C(=O)N1[C@@H](CCC(=O)OCc1ccccc1)C(=O)OCc1ccccc1` : 4.40

// recorded pIC50 for `CC1(C)N2Cc3[nH]c4ccccc4c3C[C@H]2C(=O)N1[C@@H](CC(=O)OCc1ccccc1)C(=O)OCc1ccccc1` : 4.44

// recorded pIC50 for `CC1(C)N2Cc3[nH]c4ccccc4c3C[C@H]2C(=O)N1[C@@H](CCC(N)=O)C(=O)OCc1ccccc1` : 4.38

// recorded pIC50 for `CC1(C)N2Cc3[nH]c4ccccc4c3C[C@H]2C(=O)N1[C@@H](CCCCNC(=O)OCc1ccccc1)C(=O)OCc1ccccc1` : 4.48

----------
test system: A549; test: Antiproliferative activity against human A549 cells after 3 days by sulforhodamine B assay; assay type: functional, cell-based; conditions: A549, 72 h
Labelling: IC50 reported below 40 µM becomes true (1); at or above becomes false (0).

Incoming: Please check: IC50 for `CC1(C)N2Cc3[nH]c4ccccc4c3C[C@H]2C(=O)N1[C@@H](CCC(N)=O)C(=O)OCc1ccccc1` , strictly under 40 µM or not?
Outgoing: true (1)

Incoming: Please check: IC50 for `CC1(C)N2Cc3[nH]c4ccccc4c3C[C@H]2C(=O)N1[C@@H](Cc1ccccc1)C(=O)OCc1ccccc1` , strictly under 40 µM or not?
Outgoing: true (1)

Incoming: Please check: IC50 for CCC(C)[C@@H](C(=O)OCc1ccccc1)N1C(=O)[C@@H]2Cc3c([nH]c4ccccc34)CN2C1(C)C (some centres undefined) , strictly under 40 µM or not?
Outgoing: false (0)

Incoming: Please check: IC50 for `CC1(C)N(CC(=O)OCc2ccccc2)C(=O)[C@@H]2Cc3c([nH]c4ccccc34)CN21` , strictly under 40 µM or not?
Outgoing: true (1)

Incoming: Please check: IC50 for `CC1(C)N2Cc3[nH]c4ccccc4c3C[C@H]2C(=O)N1[C@@H](CC(=O)OCc1ccccc1)C(=O)OCc1ccccc1` , strictly under 40 µM or not?
Outgoing: true (1)

Incoming: Please check: IC50 for `CC(C)C[C@@H](C(=O)OCc1ccccc1)N1C(=O)[C@@H]2Cc3c([nH]c4ccccc34)CN2C1(C)C` , strictly under 40 µM or not?
Outgoing: true (1)

Incoming: Please check: IC50 for `CC1(C)N2Cc3[nH]c4ccccc4c3C[C@H]2C(=O)N1[C@@H](CCC(=O)OCc1ccccc1)C(=O)OCc1ccccc1` , strictly under 40 µM or not?
Outgoing: true (1)

Incoming: Please check: IC50 for `CC1(C)N2Cc3[nH]c4ccccc4c3C[C@H]2C(=O)N1[C@@H](CCCCNC(=O)OCc1ccccc1)C(=O)OCc1ccccc1` , strictly under 40 µM or not?
Outgoing: true (1)

Incoming: Please check: IC50 for `CC(C)[C@@H](C(=O)OCc1ccccc1)N1C(=O)[C@@H]2Cc3c([nH]c4ccccc34)CN2C1(C)C` , strictly under 40 µM or not?
Outgoing: false (0)

----------
Hi there, I'd appreciate the recorded Activity for every entry that follows.
test system: Mus musculus; assay: Toxicity in ICR mouse xenografted with mouse S180 cells assessed as brain weight at 1 mg/kg, ip administered 24 hrs after tumor implantation daily for 7 consecutive days measured after 24 hrs of last dose (Rvb=0.31 +/- 0.01 g); assay type: organism-based, CCRF S-180; set-up: dose 1 mg/kg, route intraperitoneal; settings: in vivo
// units = g; emit number, no label

The value of Activity recorded for `COc1cccc2c1C(=O)c1c(O)c3c(c(O)c1C2=O)C[C@@](O)(C(=O)CO)C[C@@H]3O[C@H]1C[C@H](N)[C@H](O)[C@H](C)O1` when tested on Mus musculus reads 0.32

The value of Activity recorded for `CC1(C)N2Cc3[nH]c4ccccc4c3C[C@H]2C(=O)N1[C@@H](CC(=O)OCc1ccccc1)C(=O)OCc1ccccc1` when tested on Mus musculus reads 0.31

The value of Activity recorded for `CC1(C)N(CC(=O)OCc2ccccc2)C(=O)[C@@H]2Cc3c([nH]c4ccccc34)CN21` when tested on Mus musculus reads 0.3

The value of Activity recorded for `CC1(C)N2Cc3[nH]c4ccccc4c3C[C@H]2C(=O)N1[C@@H](Cc1ccc(O)cc1)C(=O)OCc1ccccc1` when tested on Mus musculus reads 0.32

----------
test: Toxicity in ip dosed ICR mouse measured after 7 days post dose; type: organism-based; conditions: in vivo
ASSAY_READOUT: LD50 at 168 h

// recorded LD50 at 168 h for `CC1(C)N2Cc3[nH]c4ccccc4c3C[C@H]2C(=O)N1[C@@H](Cc1ccc(O)cc1)C(=O)OCc1ccccc1` : > 500 mg/kg

// recorded LD50 at 168 h for `CC1(C)N2Cc3[nH]c4ccccc4c3C[C@H]2C(=O)N1[C@@H](CC(=O)OCc1ccccc1)C(=O)OCc1ccccc1` : > 500 mg/kg

// recorded LD50 at 168 h for `CC1(C)N(CC(=O)OCc2ccccc2)C(=O)[C@@H]2Cc3c([nH]c4ccccc34)CN21` : > 500 mg/kg

----------
system: Mus musculus; test: Toxicity in ICR mouse xenografted with mouse S180 cells assessed as liver weight at 1 mg/kg, ip administered 24 hrs after tumor implantation daily for 7 consecutive days measured after 24 hrs of last dose (Rvb=2.36 +/- 0.20 g); assay type: organism-based, CCRF S-180; set-up: dose 1 mg/kg, route intraperitoneal; settings: in vivo
ASSAY_READOUT: Activity (g)
// units = g; emit number, no label

// recorded Activity for `CC1(C)N(CC(=O)OCc2ccccc2)C(=O)[C@@H]2Cc3c([nH]c4ccccc34)CN21` : 2.25

// recorded Activity for `COc1cccc2c1C(=O)c1c(O)c3c(c(O)c1C2=O)C[C@@](O)(C(=O)CO)C[C@@H]3O[C@H]1C[C@H](N)[C@H](O)[C@H](C)O1` : 2

// recorded Activity for `CC1(C)N2Cc3[nH]c4ccccc4c3C[C@H]2C(=O)N1[C@@H](CC(=O)OCc1ccccc1)C(=O)OCc1ccccc1` : 2.26

// recorded Activity for `CC1(C)N2Cc3[nH]c4ccccc4c3C[C@H]2C(=O)N1[C@@H](Cc1ccc(O)cc1)C(=O)OCc1ccccc1` : 2.35
